target: truncated CRBN (319-427) (Homo sapiens (Human)); test: Fluorescence binding assay (fluorescence quenching), affinity to E3-CEREBLON (CRBN)-ubiquitin ligase; conditions: ubiquitination moiety, pH 6.5
Sequence (Q96SW2 319-427): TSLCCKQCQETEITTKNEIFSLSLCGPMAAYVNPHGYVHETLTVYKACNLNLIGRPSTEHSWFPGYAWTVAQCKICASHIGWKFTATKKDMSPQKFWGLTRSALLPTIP
Measured IC50 of individual entries

O=C1Cc2ccc(-c3ccnc(Cl)c3)cc2N1 [Compound 009, 6-(2-chloropyridin-4-yl)indolin-2-one] = > 300 µM
Cc1nc(N)ccc1-c1ccc2c(c1)CC(=O)N2 [Compound 044] = 100 to 300 µM
O=C1Cc2cc(-c3ccc(C(=O)N4CCNCC4)cc3)ccc2N1 [Compound 054] = 100 to 300 µM
NC1CCN(C(=O)c2ccc3c(c2)CC(=O)N3)CC1 [Compound 078] = > 300 µM

Exam item: Which IC50 value is on record for NC1CCCN(C(=O)c2ccc3c(c2)NC(=O)C3)C1 (stereo not shown) [Compound 080] ?
Marked response: > 300 µM

Exam item: Which IC50 value is on record for CC(C)C1C(=O)Nc2ccc(-c3ccncc3)cc21 (stereo not shown) [Compound 082] ?
Marked response: > 300 µM

Exam item: Which IC50 value is on record for CCOC(=O)c1cc(-c2ccc3c(c2)NC(=O)C3)ccn1 [Compound 066, ethyl 4-(2-oxoindolin-6-yl)picolinate] ?
Marked response: > 300 µM

Exam item: Which IC50 value is on record for O=C1Nc2cc(-c3ccncc3)ccc2C1(F)F [Compound 061] ?
Marked response: > 300 µM

Exam item: Which IC50 value is on record for O=C1Cc2cc(Cl)c(C(=O)N3CCCCC3)cc2N1 [Compound 030] ?
Marked response: > 300 µM

Exam item: Which IC50 value is on record for O=C1Cc2ccc(C(=O)Nc3ccccc3)cc2N1 [Compound 024, 2-oxo-N-phenylindoline-6-carboxamide] ?
Marked response: > 300 µM

Exam item: Which IC50 value is on record for O=C1Cc2cc(-c3ccccc3)ccc2N1 [Compound 051, 5-phenylindolin-2-one] ?
Marked response: > 300 µM

Exam item: Which IC50 value is on record for COC(=O)COc1ccc2c(c1)NC(=O)C2 [Compound 036, methyl 2-((2-oxoindolin-6-yl)oxy)acetate] ?
Marked response: > 300 µM

Exam item: Which IC50 value is on record for O=C1Cc2ccc(-c3ccc(F)nc3)cc2N1 [Compound 070, 6-(6-fluoropyridin-3-yl)indolin-2-one] ?
Marked response: > 300 µM
